molecular target: T1, COVID S1 RBD Fc fusion (Antigen 1) (SARS-CoV-2, UniProt P0DTC2 319-541); assay: phage ELISA
T1 construct: domain: RBD
Tick yes (1) if ELISA fold over background is 4 fold over background or greater. Tick no (0) if ELISA fold over background is less than 4 fold over background.

A selection of reference data follows.
• 1-23 (antibody, V domains shown, also called variant 1-23) VH: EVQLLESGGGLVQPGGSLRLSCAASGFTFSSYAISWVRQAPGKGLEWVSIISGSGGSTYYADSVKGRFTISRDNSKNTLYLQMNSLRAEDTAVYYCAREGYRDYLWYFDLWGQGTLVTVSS VL: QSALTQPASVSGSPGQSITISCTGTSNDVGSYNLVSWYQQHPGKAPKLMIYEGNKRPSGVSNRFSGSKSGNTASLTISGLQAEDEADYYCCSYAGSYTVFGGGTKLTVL = no (0)
• 1-17 (antibody, V domains shown, also called variant 1-17) VH: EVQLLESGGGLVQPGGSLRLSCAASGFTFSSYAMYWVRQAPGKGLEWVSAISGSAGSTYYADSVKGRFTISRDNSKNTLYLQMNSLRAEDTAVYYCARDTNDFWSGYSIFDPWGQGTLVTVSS VL: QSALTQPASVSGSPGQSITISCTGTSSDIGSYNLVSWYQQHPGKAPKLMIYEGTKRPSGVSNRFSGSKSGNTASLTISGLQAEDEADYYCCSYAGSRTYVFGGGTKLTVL = yes (1)
• 1-42 (antibody, V domains shown, also called variant 1-42) VH: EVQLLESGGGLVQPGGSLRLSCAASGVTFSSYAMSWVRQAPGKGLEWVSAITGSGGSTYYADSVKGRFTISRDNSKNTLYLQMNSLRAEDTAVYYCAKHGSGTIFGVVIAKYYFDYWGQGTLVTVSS VL: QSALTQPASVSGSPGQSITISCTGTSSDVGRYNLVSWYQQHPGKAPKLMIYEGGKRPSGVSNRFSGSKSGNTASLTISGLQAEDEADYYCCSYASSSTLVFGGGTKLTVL = yes (1)
• 1-7 (antibody, V domains shown, also called variant 1-7) VH: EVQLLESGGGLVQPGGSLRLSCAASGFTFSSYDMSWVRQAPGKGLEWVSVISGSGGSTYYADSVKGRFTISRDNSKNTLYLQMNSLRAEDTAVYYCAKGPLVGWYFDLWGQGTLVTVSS VL: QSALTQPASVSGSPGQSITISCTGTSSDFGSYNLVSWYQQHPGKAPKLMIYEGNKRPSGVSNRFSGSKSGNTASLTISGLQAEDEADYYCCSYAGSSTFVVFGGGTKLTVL = no (0)

Hello, I need to know if 1-47 (antibody, V domains shown, also called variant 1-47) VH: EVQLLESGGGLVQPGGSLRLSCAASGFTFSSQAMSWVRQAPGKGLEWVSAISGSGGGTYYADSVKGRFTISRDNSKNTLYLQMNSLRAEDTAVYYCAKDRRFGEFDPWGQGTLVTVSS VL: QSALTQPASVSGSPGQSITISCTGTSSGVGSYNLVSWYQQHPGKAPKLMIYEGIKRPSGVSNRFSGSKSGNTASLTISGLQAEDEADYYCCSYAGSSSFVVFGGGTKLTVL has measured ELISA fold over background not below 4 fold over background. Thanks! yes (1)

Attribution: patent US20210395344A1
